- System name: Stromelysin-1 (MMP-3)
- Procedure text: In vitro inhibitory activity against matrix metalloprotease-3
Endpoint name: IC50 (nM)

CCOc1ccc(C[C@H](NC(=O)[C@]2(CS)CC[C@H](OCC)CC2)C(=O)Nc2ccccc2)cc1: 139
CCO[C@H]1CC[C@@](CS)(C(=O)N[C@@H](Cc2ccc(OC)cc2)C(=O)Nc2ccccc2)CC1: 62
CCO[C@H]1CC[C@@](CS)(C(=O)N[C@@H](Cc2ccccc2)C(=O)NC2CCCC2)CC1: 666
CNC(=O)[C@H](Cc1ccccc1)NC(=O)C1(CS)CCCCC1: 9200
CCO[C@H]1CC[C@@](CS)(C(=O)N[C@@H](Cc2ccc(F)cc2)C(=O)Nc2ccccc2)CC1: 134
CCO[C@H]1CC[C@@](CS)(C(=O)N[C@@H](Cc2ccccc2)C(=O)Nc2ccc(OC)cc2)CC1: 39
CCO[C@H]1CC[C@@](CS)(C(=O)N[C@@H](Cc2ccccc2)C(=O)NC2CCCCC2)CC1: 617
CCO[C@H]1CC[C@@](CS)(C(=O)N[C@@H](Cc2ccccc2)C(=O)Nc2ccc(Cl)cc2)CC1: 113
CCO[C@H]1CC[C@@](CS)(C(=O)N[C@@H](Cc2ccccc2)C(=O)NC)CC1: 640
CCO[C@H]1CC[C@@](CS)(C(=O)N[C@@H](Cc2ccccc2)C(=O)Nc2ccccn2)CC1: 449
CCO[C@H]1CC[C@@](CS)(C(=O)N[C@@H](Cc2ccccc2)C(=O)Nc2ccc(OC(F)(F)F)cc2)CC1: 175
CCO[C@H]1CC[C@@](CS)(C(=O)N[C@@H](Cc2ccccc2)C(=O)NCc2ccccc2)CC1: 207

====

- System name: Stromelysin-1 (MMP-3)
- Procedure text: In vitro inhibitory activity against matrix metalloprotease-3
pIC50: −log10 of the molar value.
Endpoint name: pIC50

CNC(=O)[C@H](Cc1ccccc1)NC(=O)[C@]1(CS)CC[C@H](C(C)(C)C)CC1: < 5.00
CCC[C@H]1CC[C@@](CS)(C(=O)N[C@@H](Cc2ccccc2)C(=O)NC)CC1: < 5.00
CNC(=O)[C@H](Cc1ccccc1)NC(=O)[C@@]1(CS)CCCC(OC)C1 (stereo partly drawn): < 5.00
